The origin of these recorded values is paper PMC6271731.

Biological target: soybean lipoxygenase (Glycine max)
Construct: purchased Sigma Chemical, Co. (St. Louis, MO, USA)
Experiment: Soybean lipoxygenase inhibition in vitro
Type: biochemical
Experimental: DMSO solution of the tested compound was incubated with sodium linoleate (0.1 mM) and 0.2 mL of soybean lipoxygenase solution (1/9 × 10^−4 w/v in saline) in buffer pH 9 (tris) and at room temperature. […] The results are given in Table 1 expressed as IC50 values or % inhibition at 100 μM.
Measured Property: IC50 (µM)
Express your answer in µM, writing the number without its unit.

Briefly, IC50 measured for "Cc1cc(=O)oc2cc(OC(=O)/C=C/c3cccc(Oc4ccccc4)c3)ccc12" : 74

Briefly, IC50 measured for "O=C(O)/C=C/c1ccccc1" : 56

Briefly, IC50 measured for "CCOC(=O)c1ccc(NC(=O)/C=C/c2cccc(Oc3ccccc3)c2)cc1" : 100

Briefly, IC50 measured for "Cc1cc(=O)oc2cc(OC(=O)/C=C/c3ccc(OCc4ccc(Br)cc4)cc3)ccc12" : 50

* * *

Target: soybean lipoxygenase (Glycine max, UniProt P08170)
Construct: purchased Sigma Chemical, Co. (St. Louis, MO, USA)
Sequence (P08170 whole entry): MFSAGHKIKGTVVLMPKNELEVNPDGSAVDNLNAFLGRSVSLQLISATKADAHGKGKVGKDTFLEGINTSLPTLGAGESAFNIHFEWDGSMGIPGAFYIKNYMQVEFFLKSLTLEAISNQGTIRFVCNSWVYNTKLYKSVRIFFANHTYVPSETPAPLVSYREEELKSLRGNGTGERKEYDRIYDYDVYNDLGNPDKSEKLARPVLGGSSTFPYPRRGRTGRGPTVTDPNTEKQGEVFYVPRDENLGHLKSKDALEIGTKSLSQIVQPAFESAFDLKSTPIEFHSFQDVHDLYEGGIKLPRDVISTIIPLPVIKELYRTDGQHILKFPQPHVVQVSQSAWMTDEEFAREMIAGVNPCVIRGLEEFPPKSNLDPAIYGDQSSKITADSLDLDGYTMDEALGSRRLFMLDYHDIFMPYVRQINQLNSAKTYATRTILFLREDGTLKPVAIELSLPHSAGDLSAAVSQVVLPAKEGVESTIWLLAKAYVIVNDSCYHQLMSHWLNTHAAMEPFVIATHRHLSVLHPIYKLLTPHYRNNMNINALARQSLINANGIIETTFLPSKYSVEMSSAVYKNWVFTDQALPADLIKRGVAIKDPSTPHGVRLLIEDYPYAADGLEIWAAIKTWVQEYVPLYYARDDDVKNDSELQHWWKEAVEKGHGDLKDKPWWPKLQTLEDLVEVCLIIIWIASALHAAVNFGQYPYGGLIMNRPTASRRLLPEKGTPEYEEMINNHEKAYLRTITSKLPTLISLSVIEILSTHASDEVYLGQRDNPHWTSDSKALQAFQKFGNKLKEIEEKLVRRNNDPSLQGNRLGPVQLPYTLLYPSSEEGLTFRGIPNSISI
Assay: Soybean lipoxygenase inhibition in vitro
Format: biochemical
Conditions: sodium linoleate 0.1 mM, tris buffer pH 9, room temperature; read-out: IC50 μM LOX Inh.
Method: DMSO solution of the tested compound was incubated with sodium linoleate (0.1 mM) and 0.2 mL of soybean lipoxygenase solution (1/9 × 10^−4 w/v in saline) in buffer pH 9 (tris) and at room temperature. […] The results are given in Table 1 expressed as IC50 values or % inhibition at 100 μM.
Assignment: determine reported IC50 for the given molecules.
Express your answer in µM, writing the number without its unit.

Briefly, IC50 measured for CC(=O)Nc1ccc(O)cc1 [Paracetamol, 4-acetamidophenol, reference compound] : 82

Briefly, IC50 measured for O=C(O)/C=C/c1cccs1 [IV] : 98

Briefly, IC50 measured for CC(=O)Nc1cccc(OC(=O)/C=C/c2cccc(Oc3ccccc3)c2)c1 [Compound 2e] : 0.34

Briefly, IC50 measured for CC(=O)Nc1ccc(OC(=O)/C=C/c2ccccc2)cc1 [Compound 1a, (E) 4-Acetamidophenyl cinnamate] : 10

* * *

assay: Lipophilicity as RM values by RP-TLC; type: physicochemical; settings: methanol/water 70/30, 24 °C, average of at least five measurements
Assignment: determine reported RM (±S.D.) for the given molecules.
Number, no unit, nothing else.

Briefly, RM (±S.D.) measured for "O=C(/C=C/c1cccc(Oc2ccccc2)c1)Nc1ccc(O)cc1" : −0.116

Briefly, RM (±S.D.) measured for "Cc1cc(=O)oc2cc(OC(=O)/C=C/c3cccc(Oc4ccccc4)c3)ccc12" : 0.558

Briefly, RM (±S.D.) measured for "CC(=O)Nc1ccc(OC(=O)/C=C/c2cccc(Oc3ccccc3)c2)cc1" : 0.276

Briefly, RM (±S.D.) measured for CC(=O)Nc1ccc(OC(=O)/C=C/c2ccccc2)cc1 [Compound 1a, (E) 4-Acetamidophenyl cinnamate] : −0.725

Briefly, RM (±S.D.) measured for "Cc1cc(=O)oc2cc(OC(=O)/C=C/c3ccc(OCc4ccc(Br)cc4)cc3)ccc12" : −0.602

Briefly, RM (±S.D.) measured for "O=C(/C=C/c1cccc(Oc2ccccc2)c1)Oc1ccc2ccc(=O)oc2c1" : 0.444

Briefly, RM (±S.D.) measured for "CC(=O)Nc1ccc(OC(=O)/C=C/c2cccs2)cc1" : −0.826

Briefly, RM (±S.D.) measured for "O=C(O)/C=C/c1ccccc1" : −0.485

Briefly, RM (±S.D.) measured for "CC(=O)Nc1ccc(OC(=O)/C=C/c2ccc(OCc3ccc(Br)cc3)cc2)cc1" : −0.24

Briefly, RM (±S.D.) measured for "O=C(/C=C/c1cccc(Oc2ccccc2)c1)Oc1cc(=O)oc2ccccc12" : −0.661

Briefly, RM (±S.D.) measured for "O=C(O)/C=C/c1ccc(OCc2ccc(Br)cc2)cc1" : −0.41

Briefly, RM (±S.D.) measured for "CC(=O)Nc1cccc(OC(=O)/C=C/c2cccc(Oc3ccccc3)c2)c1" : 0.407

Briefly, RM (±S.D.) measured for "CCOC(=O)c1ccc(NC(=O)/C=C/c2cccc(Oc3ccccc3)c2)cc1" : 0.399

Briefly, RM (±S.D.) measured for "O=C(/C=C/c1cccc(Oc2ccccc2)c1)Nc1cccc(OC(=O)/C=C/c2cccc(Oc3ccccc3)c2)c1" : 1.092

Briefly, RM (±S.D.) measured for "O=C(O)/C=C/c1cccs1" : −0.56
